Target: Sentrin-specific protease 7 (Homo sapiens) (UniProt Q9BQF6)
Assay: SENP7 protease inhibitors, primary screen, biochemical, luminescence, uHTS (AID 434973);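 also: plate controls were DMSO with enzyme for no effect and no enzyme buffer wells for full effect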
Conditions: recombinant SENP7, Z-RLRGG-aminoluciferin luminescence, 40 min; at 5 µM
Hit rate of the full screen: of about 330,000 compounds, about 4,900 (1.5%) were called active.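 The calls were made as follows: active = inhibition above about 50% at the single test dose (limit read from the data); inactive = the rest.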 The sample holds actives, similar compounds and a random draw of the others, so the mix is not that of the screen.
Possible outcomes: TRUE (active), FALSE (inactive)

• COc1ccc(C(=O)Nc2nc(-c3ccc(OC)cc3)c(-c3ccc([N+](=O)[O-])cc3)s2)cc1 = FALSE
• Cc1ccsc1C(=O)OCC(=O)c1cc(C)n(CC2CCCO2)c1C (stereo unspecified) = TRUE
• COc1ccc(CCNC(=O)C(=O)NCC2CCNCC2)cc1OC = FALSE
• O=C(Nc1nc2ccc([N+](=O)[O-])cc2s1)c1ccncc1 = TRUE
• CCCc1cc(C(=O)Nc2ccc(C(=O)OC)cc2)cs1 = FALSE
• C=CCNC(=O)c1cc(-c2ccccc2O)on1 = FALSE
• Cc1noc(C)c1/C=N/Nc1ccc2ccccc2n1 = TRUE
• O=C(O)c1ccccc1NC(=S)NC(NC(=O)c1ccccc1[N+](=O)[O-])C(Cl)(Cl)Cl (stereo unspecified) = FALSE
• CN(c1ccc2nc3ccccc3c(=O)n2n1)C1CCCCC1 = TRUE
• COc1ccccc1OCC(=O)O/N=C(\N)c1ccccn1 = FALSE
• O=C(Nc1cccnc1Cl)c1cc(-c2ccccc2O)on1 = TRUE
• CNc1nc(Nc2ccc(C)c(Cl)c2)nc(N)c1[N+](=O)[O-] = TRUE
• N/C(=N\OC(=O)CCC1CCCCC1)c1ccccn1 = TRUE
• O=C(N/N=C/c1ccc2c(c1)OCO2)C(=O)N1CCCC1 = FALSE
• O=C(Nc1ccc(Cl)cn1)c1cnn2cccnc12 = FALSE
• CCN(CC)S(=O)(=O)c1ccc(N2CCOCC2)c(NC(=O)c2ccc(=O)n(C)n2)c1 = FALSE
• O=C(COc1nc2ccccc2nc1N1CCOCC1)NCC(F)(F)F = FALSE
• O=C(COC(=O)c1ccccn1)NNC(=O)c1ccc([N+](=O)[O-])cc1 = FALSE
• Cc1ccc(OCc2nc3ccccc3n2C)cc1 = TRUE
• Cc1ccc2cc(/C=N/Nc3ccc(C(=O)O)cc3)c(Cl)nc2c1 = FALSE
• O=C(Nc1ccc2oc(-c3ccc4ccccc4c3)nc2c1)c1cccs1 = FALSE
• N/C(=N\OC(=O)c1ccc([N+](=O)[O-])cc1)c1ccccn1 = TRUE
• CCN1CCN(c2nc(Nc3cccc(F)c3)nc(N)c2[N+](=O)[O-])CC1 = FALSE
• CCCc1cc(C(=O)Nc2ccc(Cl)cn2)cs1 = TRUE
• CC(=O)N1CCN(S(=O)(=O)c2ccc(C)c([N+](=O)[O-])c2)C1C(C)C (stereo unspecified) = FALSE
• O=C(COC(=O)c1ccccn1)NNC(=O)c1ccc(Br)cc1 = FALSE
• CCCCN(CC)C(=O)c1ccccc1Oc1ccccc1 = FALSE
• O=C(O)c1ccc(/C=N/Nc2nc(N3CCCCC3)nc(N3CCCCC3)n2)cc1 = FALSE
• Cn1c(CCN2CCCCCC2)nc2cc(NC(=O)Nc3ccccc3)ccc21 = FALSE
• CN(C(=O)c1cc2c(=O)n3ccccc3nc2s1)C1CCCCC1 = FALSE
• O=C(Nc1ccc(Cl)cn1)c1ccc2c(c1)OCCO2 = TRUE
• Cc1cc(=O)[nH]c(N/N=C/c2ccc3c(c2)OCCO3)n1 = FALSE
• Cn1c(COc2ccc(Cl)cc2)nc2ccccc2c1=O = FALSE
• O=C(NC(Nc1nc2ccc([N+](=O)[O-])cc2s1)(C(F)(F)F)C(F)(F)F)c1ccccc1 = FALSE
• CC(=O)NNC1=Nc2ccccc2N(C)C(C)C1 (stereo unspecified) = FALSE
• COC(=O)c1sccc1NS(=O)(=O)c1ccc(F)cc1F = FALSE
• COc1ccc(C(=O)NC(=S)Nc2ccc(Cl)cn2)cc1OC = FALSE
• Cc1cccc(C)c1NC(=O)CNC(=O)c1ccc2c(c1)OCCO2 = FALSE
• Cc1ccc(NC(=O)c2ccccn2)cc1S(=O)(=O)N1CCOCC1 = FALSE
• CCc1ccc2oc(-c3ccc(N)cc3)nc2c1 = TRUE
• CCCCn1c(N)c(N(CCC(C)C)C(=O)CC2OC(=O)c3ccccc32)c(=O)[nH]c1=O (stereo unspecified) = FALSE
• Cc1sc(NC(=O)c2ccc3ncsc3c2)c(C(N)=O)c1C = TRUE
• CCNC(=O)N1CCCC(C(=O)c2ccc(-c3ccccc3)cc2)C1 (stereo unspecified) = FALSE
• Cc1nc2ccccc2nc1N/N=C/c1ccc(O)cc1O = FALSE
• CCOc1ccc(C(O)Cc2nc3ccccc3n2C)cc1 (stereo unspecified) = FALSE
• COc1ccccc1-c1nnc(NC(=O)c2ccc3ncsc3c2)o1 = FALSE

###

Biological target: Sentrin-specific protease 7 (Homo sapiens) (UniProt Q9BQF6)
Test: SENP7 protease inhibitors, primary screen, biochemical, luminescence, uHTS (AID 434973);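 also: plate controls were DMSO with enzyme for no effect and no enzyme buffer wells for full effect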
Details: recombinant SENP7, Z-RLRGG-aminoluciferin luminescence, 40 min; at 5 µM
The whole screen tested about 330,000 compounds, of which about 4,900 (1.5%) were called active.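 Rule for the calls: active = inhibition above about 50% at the single test dose (limit read from the data); inactive = the rest.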 Shown is part of a subset that was picked to be rich in actives.
Possible outcomes: true = active, false = inactive

* CCc1ccc(-c2cc(C(=O)NCc3ccco3)c3ccccc3n2)s1 | false
* Cc1nc2ccc(C(=O)N/N=C/c3ccc(O)cc3)cc2[nH]1 | false
* CCC1(CC)NC(=O)N(Cc2nc3ccccc3s2)C1=O | false
* CCCCn1nc(C(=O)N2CCc3ccccc32)c2ccccc2c1=O | false
* COc1ccccc1OCc1ccc(C(=O)NC(C)c2ccccc2)o1 (stereo not given) | false
* Cc1ccc(S(=O)(=O)NC[C@H]2O[C@@H](n3cnc4c(N)ncnc43)[C@H](O)[C@@H]2O)s1 | false
* CC1CC(C)CN(CCC(=O)Nc2ccc3c(c2)CCC3)C1 (stereo not given) | false
* C/C(=N\NC(=O)CC(C)C)c1c(C(F)(F)F)[nH]n(-c2nc3ccccc3s2)c1=O | true
* CC(C)Oc1ccc(C(=O)NCC(=O)Nc2ccc3c(c2)CCC3)cc1 | false
* CC(=NCc1ccco1)c1c(C(F)(F)F)[nH]n(-c2nc3ccccc3s2)c1=O | true

###

Documented inhibition across a set of molecules
Molecular target: Sentrin-specific protease 7 (Homo sapiens)
Test: SENP7 protease inhibitors, primary screen, biochemical, luminescence, uHTS (AID 434973);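 also: plate controls were DMSO with enzyme for no effect and no enzyme buffer wells for full effect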
Settings: recombinant SENP7, Z-RLRGG-aminoluciferin luminescence, 40 min; at 5 µM; hits give high values
Out of some 330,000 compounds screened, about 4,900 (1.5%) were called active. For the sample, actives were picked, then their nearest neighbours and some compounds at random.
REPORTED_ENDPOINT: inhibition (%)

* Cc1ccc(S(=O)(=O)N(C)C)cc1NC(=O)C(C)OC(=O)c1ccc2ccccc2n1 (stereo unspecified) | 6.08
* O=C(N/N=C/c1ccc(OC(=O)c2ccccc2Cl)cc1)c1ccc(O)cc1 | 4.1
* CCCCc1cc(=O)oc2cc(C)cc(OCc3nn[nH]n3)c12 | 1.78
* CC(=O)Oc1ccc2c(c1)C(=O)c1ccccc1C2=O | 12.2
* COc1ccc(C(=O)Nc2ccccc2C(=O)N/N=C/c2ccc(O)c(OC)c2)cc1 | 101
* COc1ccc(NS(=O)(=O)c2cc(C(=O)Nc3ccccc3C(=O)O)ccc2C)cc1 | 9.65
* CC(OC(=O)c1ccc2ccccc2n1)C(=O)c1ccccc1 (stereo unspecified) | 55.8
* CCOc1cc(/C=N/NC(=O)c2cc(-c3ccccc3)nc3ccccc23)ccc1O | -1.26
* Cc1ccc(-n2ncc3c(Nc4cccc(C(=O)O)c4)ncnc32)cc1 | 92.6
* CC1CC(c2ccccc2)n2nc(NC(=O)c3cccs3)nc2N1 (stereo unspecified) | -9.29
* COc1ccc(/C=N/OCC(=O)N(Cc2ccccc2)c2ccccc2C(=O)O)cc1 | 6.96

###

Documented inhibition across a set of compounds
Target: Sentrin-specific protease 7 (Homo sapiens) (UniProt Q9BQF6)
Assay: SENP7 protease inhibitors, primary screen, biochemical, luminescence, uHTS (AID 434973);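 also: plate controls were DMSO with enzyme for no effect and no enzyme buffer wells for full effect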
Conditions: recombinant SENP7, Z-RLRGG-aminoluciferin luminescence, 40 min; at 5 µM; hits give high values
Among all 330,000 compounds or so, about 4,900 (1.5%) were called active. The list comes from a sample in which actives are over-represented; it also holds close analogues and randomly drawn compounds.
REPORTED_ENDPOINT: inhibition (%)

* O=C(Nc1ccc2sc3ccccc3c(=O)c2c1)c1ccccc1Cl | 51.8
* CC(=O)Nc1ccc(/C=C/C(=O)c2ccccc2)cc1 | -13.6
* Cc1cc(NC(=O)C(C)N2C(=O)c3ccccc3S2(=O)=O)no1 (stereo not drawn) | 3.21
* CCN(CC)C(=O)CSc1ncnc2c1cnn2-c1ccccc1 | 2.6
* COc1ccccc1C(CNC(=O)c1cccc(S(=O)(=O)Nc2ccc(F)cc2)c1)N(C)C (stereo not drawn) | -6.57
* Cc1ccc(C(=O)NCC(=O)O)s1 | -11.9
* COc1ccccc1C(=O)Nc1ccc(C)c(S(=O)(=O)N2CCCCC2)c1 | -5
* CCOc1ccc(N/C=C/C(=O)c2ccccc2)cc1 | 99.3
* CCOc1ccc(N/C=C/C(=O)c2cc(OC)c(OC)c(OC)c2)cc1 | -14.5
* Cc1cc(N/C=C\C(=O)c2ccc(Cl)c(Cl)c2)no1 | 10.2
* CC(OC(=O)CN1C(=O)c2ccccc2C1=O)C(=O)c1ccccc1 (stereo not drawn) | 5.15
* O=C(Nc1cccc(NC(=O)c2ccccc2[N+](=O)[O-])c1)c1ccccc1Cl | 6.18
* O=C(Nc1ccc(F)cc1)c1cc2c(s1)CCCC2 | 87
* COc1cc(NC(=O)c2cccs2)ccc1NC(=O)c1ccccc1Cl | -1.86
* COc1ccc(N2C(=O)CCC(C(=O)Nc3ccccn3)C2c2ccc(OC)c(OC)c2)cc1 (stereo not drawn) | 9.84
* O=C(CSc1nnc(COc2ccc(Cl)cc2)n1Cc1ccco1)N1CCNC1=O | -0.0156
* O=C1COc2ccc(C(=O)COC(=O)CCOc3ccccc3)cc2N1 | 7.4
* O=C(c1ccc(CS(=O)(=O)c2ccccc2)o1)N1CCN(c2ccccc2)CC1 | -0.219
* C=C(Cl)COC(=O)C1C2C=CC(C2)C1C(=O)O (stereo not drawn) | -1.65
* Cc1ccc(N/C=C/C(=O)c2ccccc2)cc1C | 91.8
* CCOc1ccc(NC(=S)N2CCC(NC(=O)c3ccccc3)CC2)cc1 | -5.22
* COC(=O)Cc1ccc(OC(=O)C2CCN(S(=O)(=O)c3ccc(OC)c(OC)c3)CC2)cc1 | -4.03
* Clc1ccc(C2=CSC3=Nc4cccc5cccc(c45)N23)cc1 | 51.9
